# Tested on: A549
# measurement_description: NCI tumour cell line growth inhibition, 48 h
Activity calls are given as the source filed them. No stated cut-off is given here; in the data, active = GI50 up to about 1.1 µM and inactive = higher.
Labels: 1 = active, -1 = inactive

{"compound": "NS(=O)(=O)c1ccc(NC(=O)Nc2cccc3ccccc23)cc1", "target_or_system": "A549", "class_name": -1}
{"compound": "CC1(C)[C@H]2CC[C@@]13C(=O)N1C(=O)O[C@@H]([C@H]1Cl)C(Cl)(COCc1ccccc1)C(=O)OCCO[C@H]3C2 (some centres not stated)", "target_or_system": "A549", "class_name": -1}
{"compound": "COc1ccc(-c2nc(SC)n(C3OC(COC(C)=O)C(OC(C)=O)C(OC(C)=O)C3OC(C)=O)c(=O)c2C#N)cc1 (configuration not stated)", "target_or_system": "A549", "class_name": -1}
{"compound": "CCC(O)CCCCCCCCCCCCCCC(=O)O (configuration not stated)", "target_or_system": "A549", "class_name": -1}
{"compound": "CC[C@@]1(O)C(=O)OCc2c1cc1n(c2=O)Cc2c-1nc1ccccc1c2/C=N\\NC(=O)C(N)CO (some centres not stated)", "target_or_system": "A549", "class_name": 1}
{"compound": "COc1ccc(C2c3cc4c(cc3OC(N3CCOCC3)C2C)OCO4)cc1 (configuration not stated)", "target_or_system": "A549", "class_name": -1}
{"compound": "Cc1cc(=O)n2c(cc3cccccc32)n1", "target_or_system": "A549", "class_name": -1}
{"compound": "COC(=O)C(C(=O)OC)C1CCCC(=O)C1 (configuration not stated)", "target_or_system": "A549", "class_name": -1}
{"compound": "Cc1cc(C)c2c(c1)C(=O)C1(C2)Cc2c(ccc(C)c2C)C1=O (configuration not stated)", "target_or_system": "A549", "class_name": -1}
{"compound": "CC(=O)OCc1cc(=O)n(C)c2c3c4c(cc12)c(C)cc(=O)n4CO3", "target_or_system": "A549", "class_name": -1}
{"compound": "COc1cc(C)c(O)c(C(=O)O)c1", "target_or_system": "A549", "class_name": -1}
{"compound": "Cc1ccc(C)c(N2C(=O)C(=O)C(c3nc4ccccc4o3)/C(=N\\NC(=O)c3ccccc3O)C2=O)c1 (configuration not stated)", "target_or_system": "A549", "class_name": -1}
{"compound": "c1ccc2c3nnc(c2c1)SCCCSc1nnc(c2ccccc12)SCCCS3", "target_or_system": "A549", "class_name": -1}
{"compound": "Nc1nc(O)c(N)c(NCCOCP(=O)(O)O)n1", "target_or_system": "A549", "class_name": -1}
{"compound": "CSc1ccc(/C=C2\\N=C(c3ccccc3)N(/N=C3\\C(=O)Nc4ccccc43)C2=O)cc1", "target_or_system": "A549", "class_name": -1}
{"compound": "CN(C)CCN1N=Nc2cccc3cccc1c23", "target_or_system": "A549", "class_name": -1}
{"compound": "Cn1c2ccccc2c(=NNc2ccc(S(N)(=O)=O)cc2)c2ccccc21", "target_or_system": "A549", "class_name": -1}
{"compound": "O=C(CC(C(=O)O)N1CCOCC1)c1ccccc1 (configuration not stated)", "target_or_system": "A549", "class_name": -1}
{"compound": "Nc1ncn2c(n1)nc1ccccc12", "target_or_system": "A549", "class_name": -1}
{"compound": "N#CC1(C#N)NC(c2ccccc2)C(C#N)(C#N)NC1c1ccccc1 (configuration not stated)", "target_or_system": "A549", "class_name": -1}
{"compound": "Cc1cc(N(CCC#N)CCC#N)ccc1/C=C1/N=C(c2ccccc2)N(N)C1=O", "target_or_system": "A549", "class_name": -1}
{"compound": "O=S(=O)(O)c1cc(O)c2c(O)c(/N=N/c3cccc4ccccc34)c(S(=O)(=O)O)cc2c1", "target_or_system": "A549", "class_name": -1}
{"compound": "Cn1c(/C=C/CO)c(CO)c2c1C(=O)C=C(N1CC1)C2=O", "target_or_system": "A549", "class_name": 1}
{"compound": "CCOC(=O)c1ccc(NC(=O)SCCC(=O)O)cc1", "target_or_system": "A549", "class_name": -1}
{"compound": "CCOC(=O)[C@@]1(C(C)=O)CC(C)=C(C)C[S@@+]1[O-]", "target_or_system": "A549", "class_name": -1}
{"compound": "CSc1ccc(-c2cn3ccsc3n2)c(O)c1", "target_or_system": "A549", "class_name": -1}
{"compound": "COc1ccc(-c2onc(-c3ccc([N+](=O)[O-])cc3)c2C2=NCCCN2)cc1", "target_or_system": "A549", "class_name": -1}
{"compound": "O=c1c2ccc(S(=O)(=O)c3ccc4c(=O)n5c6ccccc6nc5c5cccc3c45)c3cccc(c32)c2nc3ccccc3n12", "target_or_system": "A549", "class_name": -1}
{"compound": "c1ccc2c(c1)[C@@H]1O[C@@H]1[C@@]13O[C@@]21[C@H]1O[C@H]1c1ccccc13", "target_or_system": "A549", "class_name": -1}
{"compound": "C1=Nc2ccccc2Cn2nncc21", "target_or_system": "A549", "class_name": -1}
{"compound": "COc1cccc2c1C(=O)c1c(O)c3c(c(O)c1C2=O)C[C@@](O)(C(C)=O)C[C@@H]3OC1CC([N+]([O-])(Cc2ccccc2)Cc2ccccc2)C(O)C(C)O1 (some centres not stated)", "target_or_system": "A549", "class_name": -1}
{"compound": "CC(=O)c1c(SCCN2CCCCCC2)n(-c2ccccc2)c(=S)n(-c2ccccc2)c1=O", "target_or_system": "A549", "class_name": -1}
{"compound": "CC(=O)NCCC1CNc2ccccc21 (configuration not stated)", "target_or_system": "A549", "class_name": -1}
{"compound": "FC(F)(F)C1(C(F)(F)F)OC(Cl)(Cl)C(Cl)(Cl)O1", "target_or_system": "A549", "class_name": -1}
{"compound": "C/C(=C\\CCC1=CC(=O)OC1)CCC1C2C(=O)CC(C)[C@@]3(C)CC[C@]1(C)[C@@]23C (some centres not stated)", "target_or_system": "A549", "class_name": -1}
{"compound": "O=[N+]([O-])c1cc2c([N+](=O)[O-])cccc2o1", "target_or_system": "A549", "class_name": -1}
{"compound": "Nc1ccn(C2CCC(CO)O2)c(=S)n1 (configuration not stated)", "target_or_system": "A549", "class_name": -1}
